Target: T1, human TNFR2 (Novoprotein, Catalog No. C830) (human, UniProt P20333 23-257, limits assumed)
T1 construct: construct not described; also called TNFR2 protein
T1 sequence (looked up): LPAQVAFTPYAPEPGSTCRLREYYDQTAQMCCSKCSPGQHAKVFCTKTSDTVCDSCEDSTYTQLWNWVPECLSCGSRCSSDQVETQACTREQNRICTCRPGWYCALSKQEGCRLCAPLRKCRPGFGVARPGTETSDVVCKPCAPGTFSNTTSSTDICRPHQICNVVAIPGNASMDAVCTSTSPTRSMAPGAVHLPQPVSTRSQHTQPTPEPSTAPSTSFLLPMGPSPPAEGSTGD
Experiment: blocking ELISA, TNFα-biotin on coated human TNFR2; 002# OD / antibody OD x 100
OBSERVATION_TYPE: % to 002# OD (2 nM) (%)
Report the value in % with no unit label.

TNFR2 antibody #133 (antibody, V domains shown) VH: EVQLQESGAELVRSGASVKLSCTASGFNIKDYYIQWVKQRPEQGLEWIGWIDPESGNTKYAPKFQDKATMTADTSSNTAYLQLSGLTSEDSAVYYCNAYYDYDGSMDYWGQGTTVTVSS VL: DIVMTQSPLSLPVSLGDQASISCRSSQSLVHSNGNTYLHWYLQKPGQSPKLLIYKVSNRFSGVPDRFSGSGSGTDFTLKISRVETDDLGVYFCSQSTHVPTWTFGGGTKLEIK :: 74.6
TNFR2 antibody #125 (antibody, V domains shown) VH: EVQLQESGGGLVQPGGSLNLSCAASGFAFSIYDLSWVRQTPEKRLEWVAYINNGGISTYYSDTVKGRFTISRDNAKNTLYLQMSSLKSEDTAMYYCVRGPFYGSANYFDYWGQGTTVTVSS VL: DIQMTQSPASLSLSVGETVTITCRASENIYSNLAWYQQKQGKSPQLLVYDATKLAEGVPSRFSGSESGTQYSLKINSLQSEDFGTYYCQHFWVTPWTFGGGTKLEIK :: 113
TNFR2 antibody #219 (antibody, V domains shown) VH: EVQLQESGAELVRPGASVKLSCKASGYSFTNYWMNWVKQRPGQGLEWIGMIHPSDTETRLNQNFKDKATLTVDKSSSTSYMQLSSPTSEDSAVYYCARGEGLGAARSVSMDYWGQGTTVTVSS VL: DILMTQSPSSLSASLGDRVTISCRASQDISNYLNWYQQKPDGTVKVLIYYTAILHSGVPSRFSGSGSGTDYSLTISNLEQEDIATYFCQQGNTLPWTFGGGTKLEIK :: 89.7
TNFR2 antibody #088 (antibody, V domains shown) VH: EVQLQESGGGLVQPGGSLNLSCAASGFAFSTYDLSWVRQTPGKRLEWVAYINNGGISTYYSDTVKGRFTITRDNAKNTLYLQMSSLKSEDTAMYYCVRGPFYGSANYFDYWGQGTTVTVSS VL: DILMTQSPASLSLFVGETVTITCRASENIYSNLAWYQQKQGKSPQLLVYDATKLAEGVPSRFSGSESGTQYSLKINSLQSEDFGTYYCQHFWVTPWTFGGGTKLEIK :: 69.3
TNFR2 antibody #395 (antibody, V domains shown) VH: EVQLQESGPVLVQPSQSLSITCTVSGFSLTSYSVHWVRQSPGKGLEWLGVIWSDGGTDYSAAFISRLSISKDNSKSQVFFKMNSLQADDTAIYYCARNDDGGDYAMDYWGQGTTVTVSS VL: EIVLTQSPALMSASPGEKVTMTCSASSSVSYMYWYQQKPRSSPKPWIYLTSNLASGVPARFSGSGSGTSYSLTISSMEAEDAATYYCQQWSSNPLTFGAGTKLEIK :: 138
TNFR2 antibody #352 (antibody, V domains shown) VH: EVQLQESGPGLVAPSQSLSITCTVSGFSLTSYGVHWVRQPPGKGLEWLVVIWSDGGTTYNSALKSRLSISKDNSKSQVFLKMNSLQTDDTAMYYCARHDDDGYYAMDYWGQGTTVTVSS VL: DIVLTQSPSLMSASPGEKVTMTCSASSSVGYMYWYQQKPRSSPKPWIYLTSNLASGVPARFSGSGSGTSYSLTISSMEVEDAATYYCQQWSSDPFTFGSGTKLEIK :: 88.2
TNFR2 antibody #001 (antibody, V domains shown, also called antibody #1) VH: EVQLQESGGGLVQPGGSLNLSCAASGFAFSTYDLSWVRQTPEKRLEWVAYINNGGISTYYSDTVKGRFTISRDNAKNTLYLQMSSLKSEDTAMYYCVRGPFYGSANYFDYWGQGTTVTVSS VL: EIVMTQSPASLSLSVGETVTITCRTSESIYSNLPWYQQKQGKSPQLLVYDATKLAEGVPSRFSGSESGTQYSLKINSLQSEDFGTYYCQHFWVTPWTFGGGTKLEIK :: 84.2
TNFR2 antibody #226 (antibody, V domains shown) VH: EVQLQESGAELVRPGASVKLSCKASGYSFTNYWMNWVKQRPGQGLEWIGMIHPSDSETRLNQKFKDKATLTVDKSSSTAYMQLSSPTSEDSAVYYCARGEGLGAARSVSMDYWGQGTTVTVSS VL: DIQMTQSPSSLSASLGDRVTISCRASQDISNYLNWYQQKPDGTVKVLIYYTALLHSGVPSRFSGSGSGTDYSLTISNLEQEDIATYFCQQGNTLPWTFGGGTKLEIK :: 95.7

Incoming: Would you mind telling me what % to 002# OD (2 nM) value was observed for TNFR2 antibody #224 (antibody, V domains shown) VH: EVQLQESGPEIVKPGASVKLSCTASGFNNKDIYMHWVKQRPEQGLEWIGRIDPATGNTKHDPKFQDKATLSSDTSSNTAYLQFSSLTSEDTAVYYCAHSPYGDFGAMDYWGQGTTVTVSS VL: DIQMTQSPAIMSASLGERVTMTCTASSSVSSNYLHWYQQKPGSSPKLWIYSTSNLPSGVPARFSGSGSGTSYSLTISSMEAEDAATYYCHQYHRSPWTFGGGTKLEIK ?
Outgoing: 101
